B1: HDV Ribozyme (parent)
chain: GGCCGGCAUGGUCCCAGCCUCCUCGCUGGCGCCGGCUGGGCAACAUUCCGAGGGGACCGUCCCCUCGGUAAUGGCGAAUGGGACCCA

# Variants of: B1
# ASSAY OVERVIEW: self-cleavage, relative activity (ratio to wild type); higher = more cleavage; co-transcriptional
# self-cleavage annotations

// self-cleavage lookup, variant = G39U C44U , result: 0.211
